System: ATF4
Assay: ATF4 protein level in PC3 cells by western blot, 24 hr
Type: cell-based
Settings: Homo sapiens, PC-3, PC3, 24 h, Actin control, read-out: Relative ATF4 protein at 10 μM (fold change, PC3 24 h)
Experimental: Table 2. Biological data of selected compounds. For IC50 determination. PC3 and PC12 cells were treated with increasing concentrations of the indicated compounds for 72 hrs and cell viability assessed using CellTitreGlo Assay (Promega). For MYC and ATF4 protein level determination. […] Quantification analyses were performed by Biorad ChemiDoc Imager and Bio-Rad Image Lab software.

[
  {
    "molecule": "C[C@H](Oc1ccc(-c2cc(C(F)(F)F)nn2C)c(O)c1-c1ccc(Cl)c(C(F)(F)F)c1)c1ccccc1 [NUCC-0226434]",
    "tested target": "ATF4",
    "fold induction at 10 µM": 9.4
  },
  {
    "molecule": "Cn1nncc1-c1ccc(OCc2ccc(Cl)cc2)c(-c2ccc(Cl)c(C(F)(F)F)c2)c1O [NUCC-0226659]",
    "tested target": "ATF4",
    "fold induction at 10 µM": 1.5
  },
  {
    "molecule": "Cn1nc(C(F)(F)F)cc1-c1ccc(N(CC23CC4CC(CC(C4)C2)C3)C(=O)c2ccc(Cl)c(C(F)(F)F)c2)cc1O [NUCC-0226225]",
    "tested target": "ATF4",
    "fold induction at 10 µM": 15.2
  },
  {
    "molecule": "Cc1ccc([C@@H](C)Oc2ccc(-c3cc(C(F)(F)F)nn3C)c(O)c2-c2ccc(Cl)c(C(F)(F)F)c2)cc1 [NUCC-0226436]",
    "tested target": "ATF4",
    "fold induction at 10 µM": 11.8
  },
  {
    "molecule": "Cn1nc(C(F)(F)F)cc1-c1ccc(N(CCCOCCC(=O)NCCOCCNc2cccc3c2C(=O)N(C2CCC(=O)NC2=O)C3=O)C(=O)c2ccc(Cl)c(C(F)(F)F)c2)cc1O (stereo not drawn) [NUCC-0226288]",
    "tested target": "ATF4",
    "fold induction at 10 µM": 6.6
  },
  {
    "molecule": "Cn1nc(N)cc1-c1ccc(OCc2ccc(Cl)cc2)c(-c2ccc(Cl)c(C(F)(F)F)c2)c1O [NUCC-0226915]",
    "tested target": "ATF4",
    "fold induction at 10 µM": 0.95
  }
]

* * *

Biological target: MYC (Homo sapiens)
Construct: endogenous in cells; host or cells: PC3 cells
Sequence (P01106 whole entry): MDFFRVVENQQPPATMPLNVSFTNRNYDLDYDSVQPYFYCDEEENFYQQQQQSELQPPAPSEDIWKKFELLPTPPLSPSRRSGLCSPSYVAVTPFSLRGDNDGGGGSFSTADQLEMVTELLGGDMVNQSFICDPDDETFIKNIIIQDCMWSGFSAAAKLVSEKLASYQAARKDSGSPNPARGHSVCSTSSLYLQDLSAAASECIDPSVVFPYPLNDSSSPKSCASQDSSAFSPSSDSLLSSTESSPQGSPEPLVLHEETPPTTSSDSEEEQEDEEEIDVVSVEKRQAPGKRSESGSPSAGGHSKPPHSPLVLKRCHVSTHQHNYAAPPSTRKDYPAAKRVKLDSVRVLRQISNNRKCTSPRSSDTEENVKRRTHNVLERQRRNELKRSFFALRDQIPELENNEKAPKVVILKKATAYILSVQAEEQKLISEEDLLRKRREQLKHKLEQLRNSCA
Test: MYC protein level in PC3 cells by western blot, 24 hr
Type: cell-based
Conditions: PC-3, 24 h, PC3, 24 h, Actin control, read-out: Relative MYC protein at 10 μM (%, PC3 24 h)
Kindly apply the following: y if remaining activity at 10 µM is less than 90%, n in every other case.

[
  {
    "compound": "Cn1nc(C(F)(F)F)cc1-c1ccc(N(CCCOCCC(=O)NCCOCCOCCNc2cccc3c2C(=O)N(C2CCC(=O)NC2=O)C3=O)C(=O)c2ccc(Cl)c(C(F)(F)F)c2)cc1O (stereo not drawn) [NUCC-0226231]",
    "answer label": "y"
  },
  {
    "compound": "Cc1ncsc1-c1ccc(CNC(=O)[C@@H]2C[C@@H](O)CC2C(=O)[C@@H](NC(=O)COCCNC(=O)CCOCCCN(C(=O)c2ccc(Cl)c(C(F)(F)F)c2)c2ccc(-c3cc(C(F)(F)F)nn3C)c(O)c2)C(C)(C)C)cc1 (stereo partly drawn) [NUCC-0226228]",
    "answer label": "y"
  },
  {
    "compound": "Cc1ccc([C@H](C)Oc2ccc(-c3cc(C(F)(F)F)nn3C)c(O)c2-c2ccc(Cl)c(C(F)(F)F)c2)cc1 [NUCC-0226435]",
    "answer label": "y"
  },
  {
    "compound": "O=c1oc2c(-c3ccc(Cl)c(C(F)(F)F)c3)c(O)ccc2c2cc(C(F)(F)F)nn12 [NUCC-0226261]",
    "answer label": "n"
  },
  {
    "compound": "COc1c(Cl)cc(-c2cc(C(F)(F)F)nn2C)c(O)c1-c1ccc(Cl)c(C(F)(F)F)c1 [NUCC-0226500]",
    "answer label": "y"
  },
  {
    "compound": "Cc1ncsc1-c1ccc(CNC(=O)[C@@H]2C[C@@H](O)CN2C(=O)[C@@H](NC(=O)CCCCCCCCCCNC(=O)CCOCCCN(C(=O)c2ccc(Cl)c(C(F)(F)F)c2)c2ccc(-c3cc(C(F)(F)F)nn3C)c(O)c2)C(C)(C)C)cc1 [NUCC-0226227]",
    "answer label": "n"
  },
  {
    "compound": "Cn1nc(C(F)(F)F)cc1-c1ccc(N)c(-c2ccc(Cl)c(C(F)(F)F)c2)c1O [NUCC-0226520]",
    "answer label": "y"
  },
  {
    "compound": "Cc1ncsc1-c1ccc(CNC(=O)[C@@H]2C[C@@H](O)CN2C(=O)[C@@H](NCCOCCOCCCCCOc2ccc(-c3cc(C(F)(F)F)nn3C)c(O)c2-c2ccc(Cl)c(C(F)(F)F)c2)C(C)(C)C)cc1 [NUCC-0226265]",
    "answer label": "n"
  }
]

Reference for the values: patent US20260035360A1
